// reported CPE inhibition for each item listed
# test name: inhibition of RSV-induced cytopathic effect – HEp-2 cells, primary 10 µM value included (AID 2391)
# measurement context: at 10 µM, active compounds read high
Hit rate of the full screen: of about 310,000 compounds, about 410 (0.13%) were called active. Inconclusive results (about 2%) are left out. Only a sample is shown. Results with a measured potency or affinity are listed apart.
# value in %; strip the unit string

molecule="CC1CCc2[nH]c3ccc(C(=O)N(C)CC(=O)Nc4ccc(F)cc4)cc3c2C1 (stereo unspecified)" result_value=5.53
molecule=COc1ccc(-c2nc(CN3CCC(C(=O)N4CCc5ccccc54)CC3)c(C)o2)cc1OC result_value=0.12
molecule=COc1ccc(NC(=O)c2cn(-c3ccccc3)nc2-c2cc3ccccc3o2)cc1 result_value=14.1
molecule=O=C(Nc1ccc([N+](=O)[O-])cc1)c1cn(-c2ccccc2)nc1-c1cc2ccccc2o1 result_value=0.46
molecule="COC(=O)c1ccccc1S(=O)(=O)N1CCC(C(=O)OC(C)C(=O)NC(N)=O)CC1 (stereo unspecified)" result_value=1.21

**Q:** Can you look up the measured CPE inhibition of COc1cccc(CN(C(=O)c2ccccc2)C2CCS(=O)(=O)C2)c1 (stereo unspecified) for me?
**A:** 1.28

**Q:** Consider the molecule shown here: `COc1cc(/C=C/c2cc(C(=O)O)c3ccccc3n2)cc(OC)c1O` What is its recorded CPE inhibition?
**A:** -0.63

**Q:** Requested read-out: CPE inhibition. Entry: `O=C1c2ccccc2C(=O)N1CCCCN(C(=O)c1ccc(Cl)s1)c1ccc(Cl)cc1`
**A:** 42.2

**Q:** What measured CPE inhibition goes with `COCc1cc(C)nc(SCC(=O)Nc2ccc(N3CCOCC3)cc2)c1C#N` ?
**A:** 1.56

**Q:** Consider the molecule shown here: `COc1ccc(CCn2c(C(C)C)nc3c(c(=O)c4ccccc4n3C)c2=O)cc1` What is its recorded CPE inhibition?
**A:** 4.88

**Q:** Name the recorded CPE inhibition for `COc1cccc(NC(=O)c2ccccc2C(F)(F)F)c1` .
**A:** 1.62

**Q:** If you can, please state the reported CPE inhibition value of `Cc1ccc(C(=O)N/C(=C\c2cccs2)c2nc3ccccc3[nH]2)cc1` .
**A:** 1.69

**Q:** Name the recorded CPE inhibition for `O=C(N/C(=C/c1cccs1)c1nc2ccccc2[nH]1)c1ccccc1` .
**A:** -0.44

**Q:** I would be grateful if you could share the reported CPE inhibition for CCOC(=O)c1ccc(NC(=S)N2CCSC2c2ccc(Cl)cc2)cc1 (stereo unspecified) .
**A:** 52

**Q:** Can you look up the measured CPE inhibition of COc1ccc(C(=O)OCC(=O)N(C)C2CCS(=O)(=O)C2)cc1Br (stereo unspecified) for me?
**A:** 1.57

**Q:** Endpoint output: CPE inhibition of `Nc1ccc(C(=O)Nc2ccco2)cc1` . Value?
**A:** 0.93

**Q:** Endpoint output: CPE inhibition of `O=C(Nc1nc(-c2ccccc2)cs1)c1cccc([N+](=O)[O-])c1C(=O)O` . Value?
**A:** 0.63

**Q:** Can you look up the measured CPE inhibition of `O=C(Nc1cccnc1)c1ccc(Cl)c(S(=O)(=O)N2CCCCC2)c1` for me?
**A:** 10.1

**Q:** Name the reported CPE inhibition value associated with the molecule `Cc1cc(C)n2nc(C(=O)N/N=C/c3c4ccccc4cc4ccccc34)nc2n1`
**A:** 3.03

**Q:** GET /values?readout=CPE inhibition&item= `O=C1c2ccccc2C(=O)N1CCCCN(C(=O)c1cc([N+](=O)[O-])cc([N+](=O)[O-])c1)c1ccc(Cl)cc1`
**A:** 46.5

**Q:** Given the entry `Cc1cccc(NC(=O)C2CCN(S(=O)(=O)c3ccc4c(c3)NC(=O)CO4)CC2)c1C` , report its measured CPE inhibition.
**A:** 0.6
